These data points were gathered from patent US8008547B2.

protocol.summary: Standard protocol for determination of kcat and KM (continuous spectrophotometric assay, Acetyl CoA hydrolysis at 235 nm)
Type: biochemical
conditions.used: purified protein; about 23° C.; pH 6.8; 0.2 mM acetyl CoA; glyphosate 0.125 to 10 mM
Protocol: KM was calculated from the initial reaction rates obtained from concentrations of glyphosate ranging from 0.125 to 10 mM, using the Lineweaver-Burke transformation of the Michaelis-Menten equation. kcat/KM was determined by dividing the value determined for kcat by the value determined for KM. Using this methodology, kinetic parameters for a number of GAT polypeptides exemplified herein were determined. […]
Classify by measured Km: t if it is equal to or exceeds 700 µM, f if it is smaller.

Example entries and their recorded answers appear below.
# molecule, class.label
data = [
    ("SEQ ID NO: 296: GAT polypeptide (protein, 12F5, GAT polypeptide) MIEVKPINAEDTYEIRHRILRPNQPLEACMYETDLLGGTFHLGGYYQGKLISIASFHKAEHSELEGQKQYQLRGMATLEGYREQKAGSTLIRHAEELLRKKGADLLWCNARTSVSGYYKKLGFSEQGGIYDIPPIGPHILMYKKLT", "t"),
    ("SEQ ID NO: 322: GAT polypeptide (protein, 14_7G1, GAT polypeptide) MIEVKPINAEDTYEIRHRILRPNQPLEACKYETDLLRGAFHLGGYYRGKLISIASFNQAEHPELEGQKQYQLRGMATLEEYREQKAGSTLIRHAEALLRKKGADLLWCNARTSASGYYKKLGFSEQGEVYDTPPVGPHILMYKKLT", "f"),
]

// inclusive: Km at least 700 µM? input: SEQ ID NO: 390: GAT polypeptide (protein, 6_19C3, GAT polypeptide) MIEVKPINAEDTYEIRHRILRPNQPLEACKYETDLLGGTFHLGGYYRGKLISIASFHQAEHPELEGQKQYQLRGMATLEGYREQKAGSTLIRHAEELLRKKGADLLWCNARTSASGYYKKLGFSEQGEVYDIPPIGPHILMYKKLT
t

// inclusive: Km at least 700 µM? input: SEQ ID NO: 439: GAT polypeptide (protein, 0_5B11, GAT polypeptide) MIEVKPINAEDTYELRHKILRPNQPIEACMYESDLLRGAFHLGGFYGGKLISIASFHQAEHSDLEGQKQYQLRGMATLEGYRDQKAGSTLIKHAEQLLRKRGADMLWCNARTSASGYYKKLGFSEQGEVFETPPVGPHILMYKKIT
f
